Examples of binders with documented Kd follow.
- TARGET_OR_SYSTEM: T1, scHLA-B27-mmH (engineered HLA-B*27 ectodomain in-line fusion protein) (human (HLA-B*2705, beta-2 …))
- T1 construct: also called soluble HLA-B*27 fusion protein
- ASSAY_TEXT: SPR (Biacore), 25 C, PBS pH 7.2
Express it in nM; write the number only.

Here are 3 binders together with their reported answers.
{"columns": ["BINDER", "Kd / nM"],
 "data": [
  ["H4H2560P (antibody, V domains shown) VH: QVQLVQSGAEVKKPGASVKVSCKASGYTFTGYFIHWVRQAPGQGLEWVGWINPTSGGTNYAQKFQGRVTMTRDTSISTAYMEMNSLRSDDTAVYYCARKAGYTSTWFDYWGQGTTVTVSS VL: DIVMTQSPDSLTVSLGERATINCKSSQSVLYSSKNKNYLAWYQQKPGQPPNLLVYWASTRESGVPDRFSGSGSGTDFTLTISSLQAEDVAVYYCQQYYSMITFGQGTRLEIK", 1.25],
  ["H4H2524P (antibody, V domains shown) VH: QVQLQESGPGLVKPSQTLSLTCTVSGGSISSDGYYWSWIRQHPGKGLEWIGYIYYSGNTYYNPSLKSRVTISVDTSKNHFSLKLSSVTAADTAVYYCTRDPRGITGTHYFDYWGQGTLVTVSS VL: EIVLTQSPGTLSLSPGERATLSCRTSQSVSSSYLAWYQQKPGQAPRLLIYGASSRATGIPDRFSGSGSGTDFTLTISRLEPEDFAVYYCQQFGTSLFTFGPGTKVDIK", 69],
  ["H4H2559P (antibody, V domains shown) VH: QVQLVQSGAEVKKPGASVKVSCKASGYTFTDYFLHWVRQAPGQGLEWVGWINPNSGGTNFAQKFQGRVTMTRDTSISTAYMDLSRLRSDDTAVYYCARKAGYTSSWFDYWGQGTLVTVSS VL: DIVMTQSPDSLAVSLGERATINCKSSQSILYSFNNKNYLAWYQQKIGQPPMLLIYWASTRESGVPDRFSGSGSGTDFTLTISRLQAEDVAVYYCQQYYSSITFGQGTRLEIK", 0.434]
]}

Now consider a different binder.
Request: Reported Kd, binder H4H2528P (antibody, V domains shown) VH: QVQLVESGGGVVQPGRSLRLSCAASGFTFSRFGMDWVRQAPGKGLEWVAVISYDGKNKLYADSVKGRFTISRDNSKNTLYLQMNSLRAEDTAVYYCAKEGDNWNFVGDSWGQGTLVTVSS VL: DIQMTQSPSSVSASVGDRVTITCRASQGISARLAWYQQKPGKAPKLLIYAASSLQSGVPSRFSGSGSGTYFTLTISNLQPEDFATYYCQQANSFPYTLGQGTKLEIK : ____
Response: 2.71
